Entries and their measured pIC50 follow.
# target_entity: D-2 dopamine receptor (Homo sapiens, UniProt P14416)
# Sequence (P14416 whole entry): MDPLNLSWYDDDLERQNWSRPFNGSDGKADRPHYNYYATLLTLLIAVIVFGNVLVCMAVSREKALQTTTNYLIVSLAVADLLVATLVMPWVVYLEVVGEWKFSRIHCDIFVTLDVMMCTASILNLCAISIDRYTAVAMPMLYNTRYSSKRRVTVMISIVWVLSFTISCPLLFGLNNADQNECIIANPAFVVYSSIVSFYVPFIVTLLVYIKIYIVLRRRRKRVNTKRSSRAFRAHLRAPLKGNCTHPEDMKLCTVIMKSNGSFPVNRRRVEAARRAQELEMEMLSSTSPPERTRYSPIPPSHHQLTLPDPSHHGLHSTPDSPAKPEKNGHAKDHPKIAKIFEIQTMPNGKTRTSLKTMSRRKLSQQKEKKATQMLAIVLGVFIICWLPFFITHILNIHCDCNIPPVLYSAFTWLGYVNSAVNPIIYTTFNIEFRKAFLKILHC
# protocol_text: biochemical
# cond: 0.5 nM 3H-spiperone
pIC50: −log10 of the molar value.
metric_name: pIC50

                                   compound  endpoint_result
0  COc1ccccc1N1CCN(CCCCOc2ccc(-c3cn4ccccc4n3)cc2)CC1             7.16
1  COc1ccccc1N1CCN(CCCOc2ccc(-c3cn4ccsc4n3)cc2)CC1             7.64
2  COc1ccccc1N1CCN(CCOc2ccc(-c3cc4ccccn4c3)cc2)CC1.Cl.Cl [Compound 4510407, dihydrochloride]             6.59
3  COc1ccccc1N1CCN(CCCCOc2ccc(-c3cn4ccsc4n3)cc2)CC1.Cl.Cl.Cl [Compound 4510916, trihydrochloride]             7.26
4  COc1ccccc1N1CCN(CCOc2ccc(-c3cn4ccsc4n3)cc2)CC1.Cl.Cl.Cl [Compound 4510470, trihydrochloride]             7.14
5  COc1ccccc1N1CCN(CCCOc2ccc(-c3cn4ccccc4n3)cc2)CC1             7.77
6  COc1ccccc1N1CCN(CCCCOc2ccc(-c3cn4c(n3)SCC4)cc2)CC1             7.25

----------
# target_entity: α-1 receptor
# protocol_text: Alpha-1 receptor binding (3H-prazosin)
pIC50: −log10 of the molar value.
Entries and their measured pIC50 follow.
metric_name: pIC50

                                   compound  metric_name  endpoint_result
0  COc1ccccc1N1CCN(CCCCOc2ccc(-c3cn4ccccc4n3)cc2)CC1 [Compound 4510915]        pIC50             7.47
1  COc1ccccc1N1CCN(CCCOc2ccc(-c3cn4ccsc4n3)cc2)CC1 [Compound 4510472]        pIC50             7.25
2  COc1ccccc1N1CCN(CCCOc2ccc(-c3cn4ccccc4n3)cc2)CC1 [Compound 4510067]        pIC50             7.24
3  COc1ccccc1N1CCN(CCCCOc2ccc(-c3cn4c(n3)SCC4)cc2)CC1 [Compound 4510991]        pIC50             7.80
4  COc1ccccc1N1CCN(CCOc2ccc(-c3cn4cccnc4n3)cc2)CC1 [Compound 4510411]        pIC50             7.20
5  COc1ccccc1N1CCN(CCCOc2ccc(-c3cn4cccnc4n3)cc2)CC1 [Compound 4510424]        pIC50             7.52
6  COc1ccccc1N1CCN(CCOc2ccc(-c3cn4ccccc4n3)cc2)CC1 [Compound 4510408]        pIC50             7.44
7  COc1ccccc1N1CCN(CCOc2ccc(-c3cc4ccccn4c3)cc2)CC1.Cl.Cl [Compound 4510407, dihydrochloride]        pIC50             6.27

----------
# target_entity: D-2 dopamine receptor (Homo sapiens, UniProt P14416)
# protocol_text: biochemical
# cond: 0.5 nM 3H-spiperone
Where a name gives a salt, the structure may show the parent alone.
metric_name: IC50 (nM)

In [3]: df
Out[3]:
                                   compound  endpoint_result
0  COc1ccccc1N1CCN(CCCOc2ccc(-c3cn4c(n3)SCC4)cc2)CC1 [Compound 4510473]               29
1  COc1ccccc1N1CCN(CCCOc2ccc(-c3cc4ccccn4c3)cc2)CC1.Cl.Cl [Compound 4510423, dihydrochloride]               77
2  COc1ccccc1N1CCN(CCOc2ccc(-c3cn4c(n3)SCC4)cc2)CC1 [Compound 4510471, trihydrochloride]              117
3  COc1ccccc1N1CCN(CCCCOc2ccc(-c3cc4ccccn4c3)cc2)CC1 [Compound 4510613]               99
4  COc1ccccc1N1CCN(CCOc2ccc(-c3cn4cccnc4n3)cc2)CC1 [Compound 4510411]              133
5  COc1ccccc1N1CCN(CCOc2ccc(-c3cn4ccccc4n3)cc2)CC1 [Compound 4510408]               56
6  COc1ccccc1N1CCN(CCCOc2ccc(-c3cn4cccnc4n3)cc2)CC1 [Compound 4510424]               34
7  COc1ccccc1N1CCN(CCCCOc2ccc(-c3cn4cccnc4n3)cc2)CC1 [Compound 4510645]               55
